# studySystem: SmSOD (Streptococcus mutans serotype c)
# Construct: His-tail; made in house; host or cells: Escherichia coli BL21(DE3), vector vSmSOD (pET-22b(+)-derived)
# Sequence (P09738 2-203): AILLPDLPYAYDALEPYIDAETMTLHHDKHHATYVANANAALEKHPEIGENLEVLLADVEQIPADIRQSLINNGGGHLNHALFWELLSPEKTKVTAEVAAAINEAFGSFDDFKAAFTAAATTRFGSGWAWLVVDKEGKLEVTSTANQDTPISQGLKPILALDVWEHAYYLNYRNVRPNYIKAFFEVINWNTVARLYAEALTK
# protocolDetails: SOD activity assay (inhibition of cytochrome c reduction, xanthine/xanthine oxidase method) with SmSOD
# Assay type: biochemical
# experimentalSetup: 100 µM compound; ALS-31 derivatives, Table 2; read-out: Residual SOD Activity (%) in the Presence of [Compound]
experimentalReadout: remaining activity at 100 µM (%)
Answer format: numeric, % implied, no suffix.

**Q:** Looking for the measured remaining activity at 100 µM of CSCCC(NC(=O)CCNC(=O)COc1cc2oc(=O)c3c(c2cc1C)CCCC3)C(=O)O (stereo not shown) [ALS-31-8] , can you help?
**A:** 76.9

**Q:** Looking for the measured remaining activity at 100 µM of O=C(O)CCC(NC(=O)COc1ccc2c3c(c(=O)oc2c1)CCC3)C(=O)O (stereo not shown) [ALS-31-2] , can you help?
**A:** 113

**Q:** Looking for the measured remaining activity at 100 µM of CC(NC(=O)COc1ccc2c3c(c(=O)oc2c1)CCCC3)C(=O)NCC(=O)NCC(=O)O (stereo not shown) [ALS-31-5] , can you help?
**A:** 99.6

**Q:** Looking for the measured remaining activity at 100 µM of CSCCC(NC(=O)COc1ccc2c3c(c(=O)oc2c1)CCCC3)C(=O)O (stereo not shown) [ALS-31-10] , can you help?
**A:** 68.9

---

# studySystem: cambialistic StSOD (Streptococcus thermophilus)
# Sequence (Q5M4Z1 entry or part of it): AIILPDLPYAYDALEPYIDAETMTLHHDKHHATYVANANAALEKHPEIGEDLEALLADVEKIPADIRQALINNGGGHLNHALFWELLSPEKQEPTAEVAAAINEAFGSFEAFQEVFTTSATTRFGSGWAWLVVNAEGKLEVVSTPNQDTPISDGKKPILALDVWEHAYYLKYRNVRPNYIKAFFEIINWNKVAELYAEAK
experimentalReadout: IC50 (µM)
Answer format: numeric, µM implied, no suffix.

**Q:** Looking for the measured IC50 of CSCCC(NC(=O)COc1ccc2c3c(c(=O)oc2c1)CCCC3)C(=O)NCCC(=O)O (stereo not shown) , can you help?
**A:** 218
